- System Tested: Acetylcholinesterase (Rattus norvegicus)
- Sequence (P37136 whole entry): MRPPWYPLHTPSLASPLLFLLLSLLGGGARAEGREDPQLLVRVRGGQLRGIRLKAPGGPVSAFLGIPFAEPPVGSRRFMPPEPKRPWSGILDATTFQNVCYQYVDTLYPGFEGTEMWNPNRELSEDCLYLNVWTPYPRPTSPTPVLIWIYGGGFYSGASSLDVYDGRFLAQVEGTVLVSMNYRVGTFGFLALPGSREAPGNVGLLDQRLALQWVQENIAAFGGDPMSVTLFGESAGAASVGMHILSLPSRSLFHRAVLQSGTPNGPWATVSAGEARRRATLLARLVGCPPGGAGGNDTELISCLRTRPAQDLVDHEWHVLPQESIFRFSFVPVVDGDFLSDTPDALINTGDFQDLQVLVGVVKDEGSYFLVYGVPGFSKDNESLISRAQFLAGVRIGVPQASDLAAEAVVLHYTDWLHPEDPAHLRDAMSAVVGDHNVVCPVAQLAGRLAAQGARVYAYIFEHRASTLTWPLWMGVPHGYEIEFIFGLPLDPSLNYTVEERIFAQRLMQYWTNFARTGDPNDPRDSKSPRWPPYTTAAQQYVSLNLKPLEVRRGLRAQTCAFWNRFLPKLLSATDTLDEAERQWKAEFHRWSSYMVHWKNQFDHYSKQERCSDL
Measure: IC50

So what IC50 did "CC1=C(CCc2ccoc2)[C@@]2(C)CCCC(C)(C)[C@@H]2CC1=O" get with Acetylcholinesterase (Rattus norvegicus)?
38.5 µM

---

- Protocol Description: Antagonist activity at PAF receptor in rabbit platelet membrane assessed as inhibition of [3H]-PAF binding to PAF receptor
- Type: cell membranes, Oryctolagus cuniculus, Cell membrane
Measure: IC50 (µM)
Report only the number, with the unit µM understood.

So what does the record say about IC50 for "C[C@@H]1C(=O)C[C@H]2C(C)(C)CCC[C@]2(C)[C@@]12CC[C@]1(C=COC1)O2" ?
4
